Experiment: PSAC antagonists in infected red cells, primary screen, cell-based, P. falciparum Indochina, OD700, 1 h (AID 1154)
Conditions: P. falciparum Indochina infected RBC osmotic lysis, higher = more signal, called active from +8 up or from −8 down
Measurement Label: z-score
Hey, just send me the number, nothing else.

Query: GET /values?readout=z-score&item= COc1cc2c(cc1O)C(c1cccs1)N(Cc1sc3ccccc3c1Cl)CC2 (configuration not stated)
Response: 10.4

Query: GET /values?readout=z-score&item= C=CCC(OC(C)=O)[C@@H]1[C@@H](N(Cc2cccc3ccccc23)C(=O)c2ccc(-c3ccccc3)cc2)c2cc(OCCCO)ccc2N1C(=O)c1ccc(-c2ccccc2)cc1 (some centres not stated)
Response: 0.311

Others:
Query: GET /values?readout=z-score&item= O=C1C2C=CC(C(O)c3ccco3)N(Nc3ccccc3)C2C(=O)N1c1ccccc1 (configuration not stated)
Response: 0.89

Query: GET /values?readout=z-score&item= CCOC(=O)C1=C[C@@H](C(C)(C)C)N(S(=O)(=O)c2ccc(C)cc2)[C@H]1c1ccccc1
Response: -0.132

---

Here, each record is paired with measured z-score data.
Experiment: E. coli acrAB mutant growth effects, primary screen, E. coli filamentation inducers, strain DRC39, OD650, 48 h (AID 1179);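 also: screen aims at cell division blockers that make cells filament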
Conditions: E. coli DRC39 delta-acrAB growth, higher = more signal, called active from +8 up or from −8 down
Hey, just send me the number, nothing else.

Examples with their reported z-score follow.
Query: GET /values?readout=z-score&item= CC(C)=CCCC(C)=CC(O)C1C=CC2C(=O)N(c3ccccc3)C(=O)C2N1Nc1ccccc1F (configuration not stated)
Response: 0.739

Query: GET /values?readout=z-score&item= CC(C)C[C@@H]1NC(=O)[C@@]23C(=O)N[C@@H](Cc4ccccc4)C2[C@H](C)[C@@]2(C)O[C@H]2C3/C=C/C/C=C\CNC(=O)[C@@H](C)NC1=O (some centres not stated)
Response: 0.209

Query: GET /values?readout=z-score&item= O=C1C2C=CC(C(O)c3ccco3)N(Nc3ccccc3)C2C(=O)N1c1ccccc1 (configuration not stated)
Response: 0.154

Query: GET /values?readout=z-score&item= CCOC(=O)C1=CC[C@@H](c2ccccc2)N(S(=O)(=O)c2ccc(C)cc2)[C@H]1c1cccc(OC)c1
Response: 0.244

Query: GET /values?readout=z-score&item= C=CCNC(=O)[C@H]1[C@@H]2C(=O)O[C@@H](c3ccccc3)[C@@H](c3ccccc3)N2[C@@H](c2ccc(OCCO)cc2)[C@]12C(=O)Nc1ccc(C#CCNC(N)=O)cc12
Response: -1.22

Others:
Query: GET /values?readout=z-score&item= COCCOC(=O)N1C(=O)[C@@]2(c3cc(C#CC4(O)CCCCCC4)ccc31)[C@H](c1ccc(OCCO)cc1)N1[C@H](c3ccccc3)[C@H](c3ccccc3)OC(=O)[C@H]1[C@@H]2C(=O)Nc1nc2ccccc2s1
Response: -0.347

Query: GET /values?readout=z-score&item= O=C(O)[C@@H]1C[C@@H]2C(=O)N3CCC[C@H]3C(=O)N2[C@@H]1c1cccc(OCCO)c1
Response: -0.685

---

Here, each record is paired with measured composite z-score data.
Target: Calmodulin-1 (Homo sapiens)
Test: calcium-bound CALM1 binders on microarrays, profiling panel, artefact control for SMM control-protein annotation, biochemical, small-molecule microarray, Cy5-labelled CALM1, plus calcium (AID 1112);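 also: score merges spot fluorescence with signal to noise from triplicate slides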
Conditions: Cy5-CALM1 binding fluorescence, higher = more signal
Hey, just send me the number, nothing else.

Query: GET /values?readout=composite z-score&item= CN1C(=O)C2C=CC(C(O)c3cc(C(F)(F)F)cc(C(F)(F)F)c3)N(Nc3ccccc3)C2C1=O (configuration not stated)
Response: -0.151

Query: GET /values?readout=composite z-score&item= CC(C)C[C@@H]1NC(=O)[C@H]2C[C@@H](C(=O)NCCCCCN)[C@@H](c3cccc(OCCO)c3)N2C1=O
Response: 0.422

Query: GET /values?readout=composite z-score&item= O=C(CS)NCCCCCNC(=O)[C@@H]1C[C@@H]2C(=O)N[C@@H](Cc3ccccc3)C(=O)N2[C@@H]1c1cccc(OCCO)c1
Response: -0.0675

Query: GET /values?readout=composite z-score&item= COC(=O)C(CC#Cc1ccc2c(c1)[C@]1(C(=O)N2)[C@H](c2ccc(O)cc2)N2[C@H](c3ccccc3)[C@H](c3ccccc3)OC(=O)[C@H]2[C@@H]1C(=O)N1CCCCCCC1)C(=O)OC
Response: 1.64

Query: GET /values?readout=composite z-score&item= C=C[C@@H](OC)[C@H](OC(=O)Nc1ccc(OC)cc1)c1ccc(OC)c(O)c1
Response: -0.194

Others:
Query: GET /values?readout=composite z-score&item= O=C1O[C@H](c2ccccc2)[C@H](c2ccccc2)N2[C@H]1[C@@H](C(=O)O)[C@]1(C(=O)Nc3ccc(C#CC4(O)CCCCCC4)cc31)[C@H]2c1ccc(O)cc1
Response: 0.431

Query: GET /values?readout=composite z-score&item= CCOC(=O)C1=CCN(S(=O)(=O)c2ccc(C)cc2)C1c1ccccc1 (configuration not stated)
Response: -0.197

---

Experiment: small-molecule microarray binders of probe aWnt5a, primary screen, biochemical, biotinylated probe, 635/667 nm fluorescence (AID 1113);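 also: score merges 667 nm fluorescence intensity with signal-to-noise per printed feature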
Settings: higher = more signal
Here, each record is paired with measured composite z-score data.
Hey, just send me the number, nothing else.

Query: GET /values?readout=composite z-score&item= [N-]=[N+]=NC[C@H](Cc1ccccc1)NC(=O)c1ccccc1
Response: -0.0269

Others:
Query: GET /values?readout=composite z-score&item= CC(C)CNC(=O)[C@@]1(c2ccc([N+](=O)[O-])cc2)CC(=O)N(C2CCCCC2)[C@@H]1c1ccc(CO)cc1
Response: -0.0539

Query: GET /values?readout=composite z-score&item= COc1ccc([Si](C)(C)[C@@H]2[C@@H](CCn3cc([C@H](O)c4ccccc4)nn3)O[C@]3(C(=O)N(c4ccccc4)c4ccccc43)[C@H]2C)cc1
Response: -0.096

Query: GET /values?readout=composite z-score&item= O=C1O[C@H](c2ccccc2)[C@H](c2ccccc2)N2[C@H]1[C@@H](C(=O)Nc1nc3ccccc3s1)[C@]1(C(=O)Nc3ccc(C#CC4=CCCCC4)cc31)[C@H]2c1ccc(O)cc1
Response: -0.0203

Query: GET /values?readout=composite z-score&item= Cc1ccc(C(C)CC(O)C2C=CC3C(=O)N(c4ccccc4)C(=O)C3N2Nc2ccc(C#N)cc2)o1 (stereo not given)
Response: -0.0044

Query: GET /values?readout=composite z-score&item= C=C(/C(=C/C[C@@H](OC(C)=O)c1ccc(OCCO)cc1)c1cc(C(=O)OC)ccc1OC)C(C)C
Response: -0.181

Query: GET /values?readout=composite z-score&item= CN1C(=O)C2C=CC(C(O)c3ccc(I)cc3)N(Nc3ccccc3)C2C1=O (stereo not given)
Response: 0.172

Query: GET /values?readout=composite z-score&item= CC(C)C(CO)N1C(=O)[C@@H]2[C@H]3C(=O)OCC=C[C@H]3OC23C=CCN(C(C)(C)C)C(=O)[C@@H]13 (stereo not given in full)
Response: -0.204

Query: GET /values?readout=composite z-score&item= CO[C@H]1O[C@H](CO)[C@@H](OC(=O)Nc2cccc(F)c2)[C@H](OC(=O)Nc2ccccc2-c2ccccc2)[C@H]1OC(=O)Nc1ccccc1-c1ccccc1
Response: 0.0692

Query: GET /values?readout=composite z-score&item= COC(=O)[C@@]1(Cc2ccccc2CN=[N+]=[N-])N=C(c2ccc(OCCCO)cc2)O[C@H]1c1ccccc1
Response: 0.0101

Query: GET /values?readout=composite z-score&item= CCCNC(=O)[C@@]1(Sc2ccc(C)cc2)CC(=O)N(C2CCCCC2)[C@@H]1c1ccc(CO)cc1I
Response: -0.0242

Query: GET /values?readout=composite z-score&item= CCCC=C(CCC)[C@@H](NS(=O)(=O)c1cccc2cccnc12)c1ccc(-c2ccccc2)cc1
Response: 0.183

Query: GET /values?readout=composite z-score&item= O=C1NC(=O)C2C1C=CC(C(O)c1ccccn1)N2Nc1ccc(Cl)cc1Cl (stereo not given)
Response: -0.16

Query: GET /values?readout=composite z-score&item= Cc1ccc(S[C@]2(C(=O)NCc3ccccc3)CC(=O)N(Cc3cc(C(F)(F)F)cc(C(F)(F)F)c3)[C@@H]2c2ccc(CO)cc2I)cc1
Response: -0.228

Query: GET /values?readout=composite z-score&item= C=C(/C(=C/C[C@H](OC(=O)c1ccncc1)c1cccc(OCCO)c1)c1cnc2ccccc2c1)C(C)C
Response: -0.0236

Query: GET /values?readout=composite z-score&item= CCCCCN1CC=CC23O[C@@H]4C=CCOC(=O)[C@@H]4[C@H]2C(=O)N(CCO)[C@@H]3C1=O (stereo not given in full)
Response: -0.172

Query: GET /values?readout=composite z-score&item= COc1cc2c(cc1O)C(c1ccc(CN3CCCC3)cc1)N(C)CC2 (stereo not given)
Response: -0.173

Query: GET /values?readout=composite z-score&item= O=C1C2C=CC(C(O)c3ccc4c(c3)OCO4)N(Nc3ccccc3)C2C(=O)N1c1ccccc1 (stereo not given)
Response: -0.0286

Query: GET /values?readout=composite z-score&item= NCCCCCNC(=O)[C@H]1C[C@H]2C(=O)N[C@@H](Cc3ccccc3)C(=O)N2[C@H]1c1ccc(O)cc1
Response: 0.183

Entry source: PubChem BioAssay
